B1: Neutrophil cytosol factor 2, residues 456 to 514; numbered along this chain, P19878 (parent)
chain: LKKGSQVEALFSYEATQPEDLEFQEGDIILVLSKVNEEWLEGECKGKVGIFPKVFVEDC

# Variants of: B1
# assay comment: abundance fitness (aPCA) (normalised: wild type 0, dead -1); higher = more abundant; growth selection in yeast, the domain comes from the species named
# assay conditions: Homo sapiens
abundance fitness of -0.3 or higher: yes (1). Under -0.3: no (0).

Look over these answered cases.
LKKGSQVEALFSYEATQPEDLEFQEGDIILVLSKVNEEWLEGECKGKVGIAPKVFVEDC no (0)
LKKGSQVEALFSYEATQPEDLEFQEGDIILVLSKVNEGWLEGECKGKVGIFPKVFVEDC yes (1)
LKKGSQVEALFSYEATQPCDLEFQEGDIILVLSKVNEEWLEGECKGKVGIFPKVFVEDC yes (1)
LKKGSQVEALFSYEATQPEDLEFQEGDIILVLSKVNEEYLEGECKGKVGIFPKVFVEDC no (0)
LKKGSQVEALFSYEATQPWDLEFQEGDIILVLSKVNEEWLEGECKGKVGIFPKVFVEDC yes (1)

Could you please find out whether LSKGSQVEALFSYEATQPEDLEFQEGDIILVLSKVNEEWLEGECKGKVGIFPKVFVEDC has abundance fitness that meets -0.3 or exceeds it?
no (0)

Could you please find out whether LKKGSQVEALFSYEATWPEDLEFQEGDIILVLSKVNEEWLEGECKGKVGIFPKVFVEDC has abundance fitness that meets -0.3 or exceeds it?
no (0)

Could you please find out whether LKKGSQVEALFSYEATQPEDPEFQEGDIILVLSKVNEEWLEGECKGKVGIFPKVFVEDC has abundance fitness that meets -0.3 or exceeds it?
no (0)

Could you please find out whether LKKGSQVEALFSYEATQEEDLEFQEGDIILVLSKVNEEWLEGECKGKVGIFPKVFVEDC has abundance fitness that meets -0.3 or exceeds it?
no (0)

Could you please find out whether LKKGSFVEALFSYEATQPEDLEFQEGDIILVLSKVNEEWLEGECKGKVGIFPKVFVEDC has abundance fitness that meets -0.3 or exceeds it?
yes (1)

Could you please find out whether LKKGSQVEALFSYEATQPEDLEFQEGDIILVISKVNEEWLEGECKGKVGIFPKVFVEDC has abundance fitness that meets -0.3 or exceeds it?
yes (1)
